For reference, the following Ki results for Non-receptor tyrosine-protein kinase TYK2 (Homo sapiens, UniProt P29597) were taken from various sources.
Param label: returns Yes when Ki < 200 nM, returns No otherwise, including exact equality.

Look over these answered cases.
{"compound": "Cc1nc2cnc3[nH]ccc3c2n1C1CCCCC1C (mixture of isomers)", "assigned-category": "Yes"}
{"compound": "CN1CCC[C@@H]1C(=O)N1CCC(n2cnc3cnc4[nH]ccc4c32)CC1", "assigned-category": "No"}
{"compound": "OC1CCCC(n2cnc3cnc4[nH]ccc4c32)C1 (single isomer, unassigned)", "assigned-category": "Yes"}
{"compound": "C[C@H](O)c1nc2cnc3[nH]ccc3c2n1C1CCCOC1 (single isomer, unassigned)", "assigned-category": "No"}
{"compound": "CC(C)C(=O)N[C@H]1CC[C@H](n2cnc3cnc4[nH]ccc4c32)CC1", "assigned-category": "Yes"}

Ask: Is it true that Ki reported for NC(=O)Cc1nc2cnc3[nH]ccc3c2n1C1CCCOC1 (racemic) is less than 200 nM?
Reply: No

Ask: And then CC(O)(c1ccc(Nc2cc(-c3c(F)cccc3F)nc3c2C(=O)NC3)nc1)C(F)(F)F (stereo not drawn) , what is it?
Reply: Yes

Ask: What do you have for Cc1nc2cnc3[nH]ccc3c2n1[C@@H]1CC[C@@H](NC(C)CC#N)C1 (stereo partly drawn) ?
Reply: No

Ask: For "CCN1CC[C@@H](n2c(CCNS(=O)(=O)C(C)C)nc3cnc4[nH]ccc4c32)[C@@H](F)C1" then?
Reply: No

Ask: Then CN(CC(F)(F)F)C(=O)NC1CCC(n2nnc3cnc4[nH]ccc4c32)C1 (racemic) ?
Reply: No

Ask: // next record CC(CC#N)N1CCC(n2c(CNS(C)(=O)=O)nc3cnc4[nH]ccc4c32)CC1 (racemic)
Reply: Yes

Ask: Please answer likewise for "CC(C)CC(=O)NCCc1nc2cnc3[nH]ccc3c2n1C1CCN(CCC#N)CC1"
Reply: Yes

Ask: Also "O=C1NCc2nc(-c3c(F)cccc3F)cc(Nc3ccc(N4CCC(O)CC4)cn3)c21" ?
Reply: Yes

Ask: Continue with "N#CCCN1CCC(n2c(C#N)nc3cnc4[nH]ccc4c32)CC1"
Reply: Yes

Ask: Also need "Cn1ccnc1CCc1nc2cnc3[nH]ccc3c2n1C1CCN(CCC#N)CC1" , thanks.
Reply: No

Ask: What do you have for O=C1NCc2nc(-c3c(F)cccc3F)nc(Nc3ccc(C4CCCNC4=O)cc3)c21 (stereo not drawn) ?
Reply: Yes

Ask: Okay, and CC(O)c1nc2cnc3[nH]ccc3c2n1C1CCN(S(C)(=O)=O)CC1 (racemic) ?
Reply: Yes

Ask: Try the compound O=CN1CCC(n2cnc3cnc4[nH]ccc4c32)C(F)(F)C1 (stereo not drawn)
Reply: Yes

Ask: Another compound to look at: "N#Cc1cccc(CN[C@H]2CC[C@H](n3cnc4cnc5[nH]ccc5c43)CC2)c1"
Reply: Yes

Ask: Note, next up: "O=C(N[C@H]1CC[C@H](n2cnc3cnc4[nH]ccc4c32)CC1)c1ccccc1"
Reply: Yes

Ask: // query: "CCc1cc(C2CN(S(C)(=O)=O)C2)ncc1N(C)c1cc2c(cn1)ncn2C"
Reply: No

Ask: Also need O=C(NC1CCC(n2nnc3cnc4[nH]ccc4c32)C1)OCC(F)(F)F (racemic) , thanks.
Reply: Yes

---

pKi: −log10 of the molar value.
Header: pKi / Non-receptor tyrosine-protein kinase TYK2 (Homo sapiens) / multiple publications
Label true for high-side pKi (at or above 7) and false for low-side pKi (below it).

Consider the worked cases shown below.
{"molecule": "N#CCCN1CCC(n2c(COCC(F)(F)F)nc3cnc4[nH]ccc4c32)CC1", "assigned-category": "false"}
{"molecule": "CCOC(=O)Cc1ccc(Nc2nc(-c3c(F)cccc3F)nc3c2C(=O)NC3)cc1", "assigned-category": "true"}
{"molecule": "N#CCC(=O)NC1CCC(n2cnc3cnc4[nH]ccc4c32)C1 (racemic)", "assigned-category": "true"}

Ask: Record "O=C1NCc2nc(-c3c(F)cccc3F)nc(Nc3ccc([C@H]4CCN(C5CCC5)C4=O)cc3)c21" ; criterion: pKi no lower than 7. Met?
Reply: true

Ask: Repeat for the following molecule: "COc1ccc(Nc2cc(-c3c(F)cccc3F)nc3c2C(=O)NC3)nc1"
Reply: true

Ask: Consider next the molecule "O=C1NCc2nc(-c3c(F)cccc3F)nc(Nc3ccc(C(=O)N4CC5CCC(C4)O5)cc3)c21" in the same way.
Reply: true

Ask: Try the molecule "CCOC(=O)N1CCC[C@@H](n2c([C@@H](C)O)nc3cnc4[nH]ccc4c32)C1"
Reply: false

Ask: Same question, "CN(C)C(=O)CN1CCC(n2cnc3cnc4[nH]ccc4c32)CC1" this time
Reply: false

Ask: Also "O=C(Cc1ccccc1)N1CC[C@@H](n2cnc3cnc4[nH]ccc4c32)C1" ?
Reply: false

Ask: Could you do the same for "CN1CCN[C@](C)(c2ccc(Nc3nc(-c4c(F)cccc4F)nc4c3C(=O)NC4)cc2)C1=O" , please?
Reply: true

---

Listing of Ki toward Non-receptor tyrosine-protein kinase TYK2 (Homo sapiens, UniProt P29597), each taken from a published source.

Would you please look over these solved cases?
{"compound": "O=C1NCc2nc(-c3c(F)cccc3F)nc(Nc3ccc(C(O)C(F)(F)F)cc3)c21 (centres unmarked)", "experimental-target": "Non-receptor tyrosine-protein kinase TYK2 (Homo sapiens, UniProt P29597)", "Ki": "≤ 10 nM"}
{"compound": "CS(=O)(=O)N[C@H]1CC[C@H](n2cnc3cnc4[nH]ccc4c32)CC1", "experimental-target": "Non-receptor tyrosine-protein kinase TYK2 (Homo sapiens, UniProt P29597)", "Ki": "16.4 nM"}
{"compound": "N#CCCN1CCC(n2c(CCNC(=O)c3ccccc3)nc3cnc4[nH]ccc4c32)CC1", "experimental-target": "Non-receptor tyrosine-protein kinase TYK2 (Homo sapiens, UniProt P29597)", "Ki": "142 nM"}
{"compound": "c1cc2c(ncc3nnn(C4CCCOC4)c32)[nH]1 (single isomer, unassigned)", "experimental-target": "Non-receptor tyrosine-protein kinase TYK2 (Homo sapiens, UniProt P29597)", "Ki": "76.5 nM"}
{"compound": "CC(=O)N1CCN(C(=O)Cc2nc3cnc4[nH]ccc4c3n2C2CCCOC2)CC1 (racemic)", "experimental-target": "Non-receptor tyrosine-protein kinase TYK2 (Homo sapiens, UniProt P29597)", "Ki": "210 nM"}

Ask: Given "Cc1cc(Cc2nc3cnc4[nH]ccc4c3n2C2CCOCC2)on1" , state its recorded Ki.
Reply: 389 nM

Ask: Another compound to check: CN1CCCCC1C(=O)N1CCC(n2cnc3cnc4[nH]ccc4c32)CC1 (single isomer, unassigned)
Reply: 295 nM

Ask: Another: "O=C1NCc2nc(-c3c(F)cccc3F)nc(Nc3ccc(S(=O)(=O)C(F)(F)F)cc3)c21"
Reply: 10 to 100 nM

---

This section presents Ki values reported for Non-receptor tyrosine-protein kinase TYK2 (Homo sapiens, UniProt P29597) in the literature.

Known results for compounds:
{"compound": "N#Cc1cccc(F)c1-c1cc(-n2ccc(N3CCOCC3)n2)c2c(n1)CNC2=O", "Ki": "0.1 to 10 nM"}
{"compound": "CNc1nc2cnc3[nH]ccc3c2n1C1CCN(CCC#N)CC1", "Ki": "27.8 nM"}
{"compound": "O=C(NC1CCOCC1)c1cnn2ccc(NC3Cc4ccccc4C3)nc12", "Ki": "152 nM"}
{"compound": "O=C(NCCc1nc2cnc3[nH]ccc3c2n1[C@@H]1CCCOC1)C1CC1", "Ki": "2020 nM"}
{"compound": "CN1C(=O)[C@@](C)(c2ccc(Nc3nc(-c4c(F)cccc4F)nc4c3C(=O)NC4)cc2)Oc2ccccc21", "Ki": "100 to 1000 nM"}

Now for another entry.
Ask: Requested field: Ki. Item: "O[C@@H](c1nc2cnc3[nH]ccc3c2n1C1CCCCC1)C(F)(F)F"
Reply: 11.8 nM

---

pKi: −log10 of the molar value.
// merged dataset of pKi values, system = Non-receptor tyrosine-protein kinase TYK2 (Homo sapiens, UniProt P29597), multiple refs

Some solved cases for reference:
{"molecule": "N#Cc1cccc(F)c1-c1cc(-n2ccc(N3CCCOCC3)n2)c2c(n1)CNC2=O", "experimental-target": "Non-receptor tyrosine-protein kinase TYK2 (Homo sapiens, UniProt P29597)", "quantity-kind": "pKi", "assay-value": "8.00 to 10.00"}
{"molecule": "N#Cc1cccc(F)c1-c1cc(-n2ccc(N3CCCC3=O)n2)c2c(n1)CNC2=O", "experimental-target": "Non-receptor tyrosine-protein kinase TYK2 (Homo sapiens, UniProt P29597)", "quantity-kind": "pKi", "assay-value": "8.00 to 10.00"}
{"molecule": "[2H]C1([2H])N(c2ccn(-c3cc(-c4c(F)cccc4C#N)nc4c3C(=O)NC4)n2)C([2H])([2H])C(C)(O)C([2H])([2H])C1([2H])[2H] (centres unmarked)", "experimental-target": "Non-receptor tyrosine-protein kinase TYK2 (Homo sapiens, UniProt P29597)", "quantity-kind": "pKi", "assay-value": "8.00 to 10.00"}
{"molecule": "C[C@]1(O)CN(c2ccn(-c3cc(-c4c(F)cccc4C#N)nc4c3C(=O)NC4)n2)CC[C@H]1O", "experimental-target": "Non-receptor tyrosine-protein kinase TYK2 (Homo sapiens, UniProt P29597)", "quantity-kind": "pKi", "assay-value": "10.00 to 11.05"}
{"molecule": "CCNC(=O)Cc1ccc(Nc2nc(-c3c(F)cccc3F)nc3c2C(=O)NC3)cn1", "experimental-target": "Non-receptor tyrosine-protein kinase TYK2 (Homo sapiens, UniProt P29597)", "quantity-kind": "pKi", "assay-value": "7.00 to 8.00"}
{"molecule": "CC(C)n1cc(-c2cc(-c3c(F)cccc3C#N)nc3c2C(=O)NC3)cn1", "experimental-target": "Non-receptor tyrosine-protein kinase TYK2 (Homo sapiens, UniProt P29597)", "quantity-kind": "pKi", "assay-value": "8.00 to 10.00"}
{"molecule": "COC[C@H]1CC[C@H](n2c(CO)nc3cnc4[nH]ccc4c32)CC1", "experimental-target": "Non-receptor tyrosine-protein kinase TYK2 (Homo sapiens, UniProt P29597)", "quantity-kind": "pKi", "assay-value": 8.19}
{"molecule": "CCS(=O)(=O)N1CCC(C)(n2cnc3cnc4[nH]ccc4c32)CC1", "experimental-target": "Non-receptor tyrosine-protein kinase TYK2 (Homo sapiens, UniProt P29597)", "quantity-kind": "pKi", "assay-value": 7.47}

Ask: May I ask what pKi has been recorded for "N#CCCN1CCC(n2c(CCNS(=O)(=O)C3CC3)nc3cnc4[nH]ccc4c32)CC1" ?
Reply: 7.11

Ask: Would you mind doing "OCc1nc2cnc3[nH]ccc3c2n1C1CCN(CCF)CC1" as well?
Reply: 7.99

Ask: Request: "O=C1NCc2nc(-c3c(F)cccc3Cl)cc(Nc3ccc(N4CCCC4)cn3)c21"
Reply: > 8.00
